- method-notes: Human pregnane X receptor (PXR) small molecule agonists, qHTS cell viability counter screen (AID 1346977); note: nearly all actives have a fitted effect of over 50% in size
- condition: PXR-Luc HepG2 viability, CellTiter-Fluor, 24 h; series mostly up to 92.4 µM
Inconclusive results are not listed. Calls of active or inactive are those of the source. Calls come from the whole dose curve; as a rule, active = well fitted cell-killing curve with a large enough effect in the repeat runs; inconclusive = weak or mixed curves, or effect the other way; inactive = flat fitted curve, though single readings scatter.
observation-type: activity change, negative = cytotoxicity

CC(C)NC[C@@H](O)COc1cccc2ccccc12 ... inactive
Cc1onc(-c2ccccc2)c1C(=O)Cl ... inactive
CCCS(=O)c1ccc2nc(NC(=O)OC)[nH]c2c1 (centres undefined) ... inactive
FC(F)(F)C(Cl)(Cl)Cl ... inactive
CCOc1ccc(NS(=O)(=O)c2ccc(N)cc2)nn1 ... inactive
ICCc1ccccc1 ... inactive
CC(C)CCCCCCc1ccc(OCCOCCO)cc1 ... inactive
CC(=O)OC1C2(C)CCC(C2)C1(C)C (centres undefined) ... inactive
CC(C)(C)c1ccc(OC(=O)c2ccccc2O)cc1 ... inactive
CC(C)=CCC[C@](C)(O)[C@@H]1CC=C(C)CC1 ... inactive

Quick check: activity change, negative = cytotoxicity of C=CC(C)(O)CC/C=C(\C)CCC=C(C)C (centres undefined) ?
inactive

Quick check: activity change, negative = cytotoxicity of CC(C)NCC(O)COc1ccc(CCOCC2CC2)cc1 (centres undefined) ?
inactive

Quick check: activity change, negative = cytotoxicity of `O=C(Cl)c1cccc([N+](=O)[O-])c1` ?
inactive

Quick check: activity change, negative = cytotoxicity of COC(C)CCO (centres undefined) ?
inactive
